target: Nonstructural protein 5A (UniProt Q5L478); assay: Allosteric inhibition of HCV genotype 1b NS5A infected in human l389lucubi- neo/NS3-375.1-containing Huh7ET cells assessed as RNA replication/translation after 4 days by luciferase reporter gene assay
Sequence (Q5L478 whole entry): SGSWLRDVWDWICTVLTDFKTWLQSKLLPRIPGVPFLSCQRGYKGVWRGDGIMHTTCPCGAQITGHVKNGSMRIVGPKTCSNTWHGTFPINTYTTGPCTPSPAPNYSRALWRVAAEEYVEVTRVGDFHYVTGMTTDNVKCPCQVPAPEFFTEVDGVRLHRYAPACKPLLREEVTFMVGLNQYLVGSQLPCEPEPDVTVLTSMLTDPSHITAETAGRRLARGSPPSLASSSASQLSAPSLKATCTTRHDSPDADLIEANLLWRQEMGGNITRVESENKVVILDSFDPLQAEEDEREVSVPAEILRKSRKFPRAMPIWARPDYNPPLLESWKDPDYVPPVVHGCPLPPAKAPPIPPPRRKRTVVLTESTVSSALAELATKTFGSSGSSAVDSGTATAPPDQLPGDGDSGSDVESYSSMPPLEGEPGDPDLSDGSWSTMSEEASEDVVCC
quantity-kind: pEC50
Friendly reminder that pEC50 comes from taking -log10 of the concentration in mol/L.

Bench note: what pEC50 did "CC(C)(C)C#Cc1cc(N(CC(=O)N2CCOCC2)C(=O)[C@H]2CC[C@H](C)CC2)c(C(=O)O)s1" show?
7.64

====

assay: Allosteric inhibition of HCV genotype 1b NS5A infected in human l389lucubi- neo/NS3-375.1-containing Huh7ET cells assessed as RNA replication/translation after 4 days by luciferase reporter gene assay
Measured pEC50 by item
Friendly reminder that pEC50 comes from taking -log10 of the concentration in mol/L.

- smi: "CCN(CC)C(=O)CN(c1cc(C#CC(C)(C)C)sc1C(=O)O)C(=O)[C@H]1CC[C@H](C)CC1"
  experimental-value: 7.64
- smi: "C[C@@H](C(=O)N(C)C)N(c1cc(C#CC(C)(C)C)sc1C(=O)O)C(=O)[C@H]1CC[C@H](C)CC1"
  experimental-value: 8.30
- smi: "CC(C)(C)C#Cc1cc(N(CC(=O)N2CCC(O)CC2)C(=O)[C@H]2CC[C@H](C)CC2)c(C(=O)O)s1"
  experimental-value: 7.19
- smi: "CC(C)(C)C#Cc1cc(N(CC(=O)N2CCCCC2)C(=O)[C@H]2CC[C@H](C)CC2)c(C(=O)O)s1"
  experimental-value: 7.17
- smi: "CC[C@@H](C(=O)N(C)C)N(c1cc(C#CC(C)(C)C)sc1C(=O)O)C(=O)[C@H]1CC[C@H](C)CC1"
  experimental-value: 7.80

Bench note: what pEC50 did "CC(C)(C)C#Cc1cc(N(C(=O)[C@H]2CC[C@H](C)CC2)[C@H]2CC[C@H](O)CC2)c(C(=O)O)s1" show?
8.15

What do we get for "CNC(=O)CN(c1cc(C#CC(C)(C)C)sc1C(=O)O)C(=O)[C@H]1CC[C@H](C)CC1" ?
6.72

What do we get for "COC[C@@H](C(=O)N(C)C)N(c1cc(C#CC(C)(C)C)sc1C(=O)O)C(=O)[C@H]1CC[C@H](C)CC1" ?
8.15

What do we get for "CN1CCN(C(=O)CN(c2cc(C#CC(C)(C)C)sc2C(=O)O)C(=O)[C@H]2CC[C@H](C)CC2)CC1" ?
8.22

What do we get for "CC(C)(C)C#Cc1cc(N(CC(=O)N2CC(O)C2)C(=O)[C@H]2CC[C@H](C)CC2)c(C(=O)O)s1" ?
7.18

What do we get for "CN(C)C(=O)CN(c1cc(C#CC(C)(C)C)sc1C(=O)O)C(=O)[C@H]1CC[C@H](C)CC1" ?
7.92

====

experiment: Allosteric inhibition of HCV genotype 1b NS5A infected in human l389lucubi- neo/NS3-375.1-containing Huh7ET cells assessed as RNA replication/translation after 4 days in presence of 40% human serum by luciferase reporter gene assay
quantity-kind: pEC50
Friendly reminder that pEC50 comes from taking -log10 of the concentration in mol/L.

Bench note: what pEC50 did "CC(C)(C)C#Cc1cc(N(CC(=O)N2CCOCC2)C(=O)[C@H]2CC[C@H](C)CC2)c(C(=O)O)s1" show?
6.47

====

assay: Allosteric inhibition of HCV genotype 1a NS5A infected in human W11.8 cells assessed as reduction in viral RNA replication after 4 days by ELISA
Measured pEC50 by item
Friendly reminder that pEC50 comes from taking -log10 of the concentration in mol/L.

- smi: "COC[C@@H](C(=O)N(C)C)N(c1cc(C#CC(C)(C)C)sc1C(=O)O)C(=O)[C@H]1CC[C@H](C)CC1"
  pEC50: 7.96
- smi: "CN(C)C(=O)CN(c1cc(C#CC(C)(C)C)sc1C(=O)O)C(=O)[C@H]1CC[C@H](C)CC1"
  pEC50: 7.46
- smi: "CC(C)(C)C#Cc1cc(N(CC(=O)N2CCOCC2)C(=O)[C@H]2CC[C@H](C)CC2)c(C(=O)O)s1"
  pEC50: 7.43

Read the next record carefully.
Bench note: what pEC50 did "C[C@@H](C(=O)N(C)C)N(c1cc(C#CC(C)(C)C)sc1C(=O)O)C(=O)[C@H]1CC[C@H](C)CC1" show?
8.15

====

experiment: Allosteric inhibition of HCV genotype 1b NS5A infected in human l389lucubi- neo/NS3-375.1-containing Huh7ET cells assessed as RNA replication/translation after 4 days by luciferase reporter gene assay
API: label(entry) gives 1 (yes) if the entry's EC50 is strictly smaller than 20 nM; on equality or larger values it gives 0 (no).

Worked examples, 5 molecules total:
- smi: "CC(C)(C)C#Cc1cc(N(CC(=O)N2CCCC2)C(=O)[C@H]2CC[C@H](C)CC2)c(C(=O)O)s1"
  category-label: "0 (no)"
- smi: "COC1CCN(C(=O)CN(c2cc(C#CC(C)(C)C)sc2C(=O)O)C(=O)[C@H]2CC[C@H](C)CC2)CC1"
  category-label: "1 (yes)"
- smi: "CC(C)NC(=O)CN(c1cc(C#CC(C)(C)C)sc1C(=O)O)C(=O)[C@H]1CC[C@H](C)CC1"
  category-label: "0 (no)"
- smi: "CN(C)C(=O)[C@H](CO)N(c1cc(C#CC(C)(C)C)sc1C(=O)O)C(=O)[C@H]1CC[C@H](C)CC1"
  category-label: "0 (no)"
- smi: "CCC[C@@H](C(=O)N(C)C)N(c1cc(C#CC(C)(C)C)sc1C(=O)O)C(=O)[C@H]1CC[C@H](C)CC1"
  category-label: "1 (yes)"

API: query returns whether the molecule falls strictly under 20 nM in EC50. Query: "CC(C)[C@@H](C(=O)N(C)C)N(c1cc(C#CC(C)(C)C)sc1C(=O)O)C(=O)[C@H]1CC[C@H](C)CC1"
0 (no)

What do we get for "CN(C)CCN(C)C(=O)CN(c1cc(C#CC(C)(C)C)sc1C(=O)O)C(=O)[C@H]1CC[C@H](C)CC1" ?
1 (yes)

What do we get for "C[C@H](C(=O)N(C)C)N(c1cc(C#CC(C)(C)C)sc1C(=O)O)C(=O)[C@H]1CC[C@H](C)CC1" ?
0 (no)

====

Measured pEC50 by item
assay: Allosteric inhibition of HCV genotype 1a NS5A infected in human W11.8 cells assessed as reduction in viral RNA replication after 4 days by ELISA
Friendly reminder that pEC50 comes from taking -log10 of the concentration in mol/L.

- smi: "CC(C)(C)C#Cc1cc(N(C(=O)[C@H]2CC[C@H](C)CC2)[C@H]2CC[C@H](O)CC2)c(C(=O)O)s1"
  experimental-value: 7.28
- smi: "CC(C)(C)C#Cc1cc(N(CC(=O)N2CCCC2)C(=O)[C@H]2CC[C@H](C)CC2)c(C(=O)O)s1"
  experimental-value: 7.49
- smi: "CC[C@@H](C(=O)N(C)C)N(c1cc(C#CC(C)(C)C)sc1C(=O)O)C(=O)[C@H]1CC[C@H](C)CC1"
  experimental-value: 7.62

Bench note: what pEC50 did "CCN(CC)C(=O)CN(c1cc(C#CC(C)(C)C)sc1C(=O)O)C(=O)[C@H]1CC[C@H](C)CC1" show?
7.29
